Target: Protein deacetylase HDAC6 (Homo sapiens, UniProt Q9UBN7)
Sequence (Q9UBN7 whole entry): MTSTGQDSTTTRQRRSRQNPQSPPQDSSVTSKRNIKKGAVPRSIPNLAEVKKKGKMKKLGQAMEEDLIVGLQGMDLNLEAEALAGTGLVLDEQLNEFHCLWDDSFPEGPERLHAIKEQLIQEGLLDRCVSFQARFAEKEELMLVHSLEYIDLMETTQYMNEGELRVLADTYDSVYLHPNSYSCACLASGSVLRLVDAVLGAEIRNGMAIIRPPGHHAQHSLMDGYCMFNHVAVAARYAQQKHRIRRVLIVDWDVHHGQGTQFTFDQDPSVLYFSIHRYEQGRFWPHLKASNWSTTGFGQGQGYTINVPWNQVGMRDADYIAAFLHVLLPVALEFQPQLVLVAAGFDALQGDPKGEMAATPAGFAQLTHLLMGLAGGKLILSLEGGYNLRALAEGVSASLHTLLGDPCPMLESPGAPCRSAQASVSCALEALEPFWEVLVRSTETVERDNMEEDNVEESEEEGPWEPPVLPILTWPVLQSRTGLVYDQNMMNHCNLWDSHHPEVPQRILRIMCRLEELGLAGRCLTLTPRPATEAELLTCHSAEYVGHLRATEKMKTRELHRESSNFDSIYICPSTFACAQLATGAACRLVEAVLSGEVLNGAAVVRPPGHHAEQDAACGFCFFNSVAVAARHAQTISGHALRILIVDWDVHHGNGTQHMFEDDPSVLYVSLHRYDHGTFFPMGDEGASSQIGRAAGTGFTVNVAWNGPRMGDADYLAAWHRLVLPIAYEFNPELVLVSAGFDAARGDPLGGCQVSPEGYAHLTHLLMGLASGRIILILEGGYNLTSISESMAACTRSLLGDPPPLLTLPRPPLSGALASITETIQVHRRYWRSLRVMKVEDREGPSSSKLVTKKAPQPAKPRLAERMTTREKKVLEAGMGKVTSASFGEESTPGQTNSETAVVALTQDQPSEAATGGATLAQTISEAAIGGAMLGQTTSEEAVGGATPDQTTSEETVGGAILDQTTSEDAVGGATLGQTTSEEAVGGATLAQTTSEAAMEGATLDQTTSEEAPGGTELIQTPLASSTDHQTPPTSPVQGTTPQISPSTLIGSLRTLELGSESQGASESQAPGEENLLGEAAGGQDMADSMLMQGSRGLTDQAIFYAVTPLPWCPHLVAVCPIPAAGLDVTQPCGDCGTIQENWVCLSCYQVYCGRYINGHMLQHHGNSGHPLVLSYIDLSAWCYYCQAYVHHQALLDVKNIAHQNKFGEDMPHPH
Test: Inhibition of recombinant human HDAC6 using Boc-Lys (acetyl)-AMC as substrate preincubated with compound for 1 hr followed by substrate addition and measured after 30 mins by microplate reader assay
Please provide measured pIC50 for the entries that follow.
For clarity, pIC50 is expressed as the negative log10 of concentration in mol/L.

Reported pIC50 ( "C=C1C(=O)O[C@@H]2C[C@@]3(C)CC[C@@H](OC(=O)CNC(=O)c4ccc(C(=O)NO)cc4)C(=C)[C@@H]3C[C@H]12" ) = 7.06

Reported pIC50 ( "C=C1C(=O)O[C@@H]2C[C@@]3(C)CC[C@@H](OC(=O)CNC(=O)c4cccc(/C=C/C(=O)NO)c4)C(=C)[C@@H]3C[C@H]12" ) = 7.34

Reported pIC50 ( "C=C1C(=O)O[C@@H]2C[C@@]3(C)CC[C@@H](OC(=O)[C@H](C)NC(=O)c4ccc(/C=C/C(=O)NO)cc4)C(=C)[C@@H]3C[C@H]12" ) = 8.11
